target: Fibroblast growth factor 10 (Homo sapiens) (UniProt O15520); assay: FGF10 binders on small-molecule microarrays, primary screen, biochemical, small-molecule microarray, 635 nm fluorescence (AID 1102); conditions: FGF10 binding, fluorescence 635 nm, higher = more signal
Sequence (O15520 whole entry, looked up): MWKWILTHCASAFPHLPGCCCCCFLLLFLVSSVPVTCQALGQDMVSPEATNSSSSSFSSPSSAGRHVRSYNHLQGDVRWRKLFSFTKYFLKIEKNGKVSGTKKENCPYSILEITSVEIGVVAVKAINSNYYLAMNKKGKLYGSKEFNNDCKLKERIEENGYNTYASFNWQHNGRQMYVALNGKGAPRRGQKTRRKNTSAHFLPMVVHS
RESULT TYPE: composite z-score
Please state the value as a number alone, without comment.

Ask: For the molecule `CO[C@@H]1COC(=O)[C@@H]2CCCN2C(=O)[C@@H](C)COC(=O)[C@H](COCc2ccccc2)NC(=O)CC=C[C@H]1C` , what composite z-score is on record?
Result: 0.613

Ask: Let us now turn to `COC(=O)CC=C[C@H](C)[C@@H](OCc1ccccc1Br)C(C)C`
Result: 0.321

Ask: Let us now turn to `COCCOC(=O)N1C(=O)[C@@]2(c3cc(C#CCNC(N)=O)ccc31)[C@H](c1ccc(O)cc1)N1[C@H](c3ccccc3)[C@H](c3ccccc3)OC(=O)[C@H]1[C@@H]2C(=O)N1CCCCCCC1`
Result: 1.25

====

Items are presented alongside their recorded composite z-score.
assay: small-molecule microarray binders of probe aEGFR, primary screen, biochemical, biotinylated probe, 635/667 nm fluorescence (AID 1097); conditions: higher = more signal;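 further: probe is a biotinylated anti-EGFR antibody binding compounds printed on slides; score combines fluorescence near 667 nm and signal to noise of each spot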

# annotated cases, reported composite z-score shown
[[record]]
smi = "C=CCN1C(=O)[C@]2(O[C@H](CCn3cc(CCO)nn3)[C@@H]([Si](C)(C)c3ccc(OC)cc3)[C@@H]2C)c2cc(N3CCOC3=O)ccc21"
test_result = -0.256

[[record]]
smi = "CCc1cc2c(nc1CC)CCN(CCC(C)=NOC[C@@H](O)COCc1ccco1)C2"
test_result = 0.441

[[record]]
smi = "CCCCCCc1nc(CCCc2cc3c(c(CCCCCC)n2)[Si](C(C)C)(C(C)C)O[C@H]3c2ccccc2)cc2c1[Si](C(C)C)(C(C)C)O[C@H]2c1ccccc1"
test_result = -0.11


API: the following record is the query input.
Ask: For the molecule `CC(CCC(=O)OC[C@H]1O[C@H](C#Cc2ccccc2)C=C[C@@H]1Oc1ccc(C)cc1)=NOC[C@@H](O)COCc1ccco1` , what composite z-score is on record?
Result: -0.428

====

system: glycogen synthase kinase-3 (GSK3A per assay name; protocol says GSK3B); assay: GSK3 binders on small-molecule microarrays, primary screen, biochemical, small-molecule microarray, 635 nm fluorescence, GSK3A (AID 1103); conditions: small-molecule microarray binding, fluorescence 635 nm; higher = more signal; further: the record names both GSK3A and GSK3B
Items are presented alongside their recorded composite z-score.
Please state the value as a number alone, without comment.

[[record]]
molecule = "CC(CCN1CCc2nc(-c3ccccc3)c(-c3ccccc3)cc2C1)=NOC(C)CN1CCCCc2nc(C)c(C)cc21 (centres undefined)"
test_result = 0.746

[[record]]
molecule = "CC(C)=NOCc1cccc(-c2cc(-c3ccccc3)no2)c1"
test_result = 0.787

[[record]]
molecule = "COCCCNC(=O)[C@@]1(C)c2ccccc2C(=O)N(Cc2ccc(OC(F)(F)F)cc2)[C@H]1c1ccc(CO)cc1"
test_result = -1.3

[[record]]
molecule = "O=C1C[C@@H](O)[C@@H](O)[C@@H]2[C@@H]3C(=O)N(Cc4ccc5c(c4)OCO5)C(=O)[C@@H]3CC[C@@H]12"
test_result = 0.45

[[record]]
molecule = "COC(=O)CC=C[C@@H](C)[C@H](OC)c1ccccc1Br"
test_result = 0.169

[[record]]
molecule = "C=CC[C@@H]1C=C[C@H](ON=C2c3cc(OC)ccc3O[C@H](c3cccc(OC)c3)[C@H]2O)[C@@H](CO)O1"
test_result = -0.325

[[record]]
molecule = "CCCC[C@H]1OB(O)C[C@H]2C1=C(C)C[C@H]1C(=O)N(C)C(=O)[C@H]12"
test_result = 0.774

[[record]]
molecule = "COCC(=C=CC[C@@H](O)c1ccccc1OCCO)CCO"
test_result = -0.0421


Ask: // lookup composite z-score | system=glycogen synthase kinase-3 (GSK3A per assay name; protocol says GSK3B) | key= CS(=O)(=O)CCOC(=O)C1=CC(CCCO)=CC(c2cccs2)N(Cc2cccc(OC(F)(F)F)c2)C=C1C(=O)OCCS(C)(=O)=O (centres undefined)
Result: 0.873

Every entry's value here was drawn from PubChem BioAssay.
